- test_target: Estrogen Receptor ERα (Homo sapiens, UniProt P03372)
- Sequence (P03372 311-547 limits assumed): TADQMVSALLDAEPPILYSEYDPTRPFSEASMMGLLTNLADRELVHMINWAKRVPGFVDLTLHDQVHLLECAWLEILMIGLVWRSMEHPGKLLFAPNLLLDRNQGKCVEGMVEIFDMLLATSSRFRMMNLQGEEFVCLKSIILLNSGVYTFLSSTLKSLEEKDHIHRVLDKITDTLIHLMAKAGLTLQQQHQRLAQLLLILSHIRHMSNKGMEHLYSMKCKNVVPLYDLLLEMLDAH
- method_notes: cell-based
- test_settings: 10% of maximum effect of E2
Attribute: EC10, ERα (M)
value_type: EC10, ERα (M)

                                    compound                               test_target     assay_value
 0              CC1(C)[C@H](O)C(C)(C)[C@H]1O  Estrogen Receptor ERα (Homo sapiens, UniProt P03372)  3.03 × 10^–3 M
 1  CC(C)(c1ccc(O)cc1)c1ccc(O)cc1 [BPA, 4,4'-(Propane-2,2-diyl)diphenol, reference compound]  Estrogen Receptor ERα (Homo sapiens, UniProt P03372)  3.70 × 10^–7 M
 2  COC(=O)C(c1ccc(O)cc1)c1ccc(O)cc1 [Bz, Methyl bis(4-hydroxyphenyl)acetate]  Estrogen Receptor ERα (Homo sapiens, UniProt P03372)  1.06 × 10^–6 M
 3      CC(C)Oc1ccc(S(=O)(=O)c2ccc(O)cc2)cc1  Estrogen Receptor ERα (Homo sapiens, UniProt P03372)  1.12 × 10^–5 M
 4  C=CCOc1ccc(S(=O)(=O)c2ccc(O)cc2)cc1 [BPS-MAE, 4-[[4-(Allyloxy)phenyl]sulfonyl]phenol]  Estrogen Receptor ERα (Homo sapiens, UniProt P03372)  1.41 × 10^–5 M
 5                   Oc1ccc(Sc2ccc(O)cc2)cc1  Estrogen Receptor ERα (Homo sapiens, UniProt P03372)  7.27 × 10^–7 M
 6  O=C(OCc1ccccc1)c1ccc(O)cc1 [BzPB, Benzyl 4-hydroxybenzoate]  Estrogen Receptor ERα (Homo sapiens, UniProt P03372)  3.02 × 10^–6 M
 7            CCC(C)(c1ccc(O)cc1)c1ccc(O)cc1  Estrogen Receptor ERα (Homo sapiens, UniProt P03372)  1.35 × 10^–7 M
 8  O=S(=O)(c1ccc(O)cc1)c1ccccc1O [2,4-BPS, 2,4'-Dihydroxydiphenyl sulfone]  Estrogen Receptor ERα (Homo sapiens, UniProt P03372)  1.98 × 10^–5 M
 9  Oc1ccc(Cc2ccc(O)cc2)cc1 [BPF, Bis(4-hydroxyphenyl)methane]  Estrogen Receptor ERα (Homo sapiens, UniProt P03372)  9.95 × 10^–7 M
10           O=S(=O)(c1ccc(O)cc1)c1ccc(O)cc1  Estrogen Receptor ERα (Homo sapiens, UniProt P03372)  1.43 × 10^–6 M
11            CC1(C)C(O)C(C)(C)C1O (racemic)  Estrogen Receptor ERα (Homo sapiens, UniProt P03372)  1.29 × 10^–2 M
12  CC(C)c1cc(C(C)(C)c2ccc(O)c(C(C)C)c2)ccc1O  Estrogen Receptor ERα (Homo sapiens, UniProt P03372)  9.02 × 10^–7 M

###

- test_target: Estrogen Receptor ERα (Homo sapiens)
- method_notes: cell-based
- test_settings: This Study; ERα; in M
Attribute: EC10
value_type: EC10

>>> print(df.to_string())
                                   molecule                           test_target  assay_value
0  CC(C)c1cc(C(C)(C)c2ccc(O)c(C(C)C)c2)ccc1O [BPG]  Estrogen Receptor ERα (Homo sapiens)     9.02E-07
1  CC(C)Oc1ccc(S(=O)(=O)c2ccc(O)cc2)cc1 [D8, 4-((4-Isopropoxyphenyl)sulfonyl)phenol]  Estrogen Receptor ERα (Homo sapiens)     1.12E-05
2     CC1(C)[C@H](O)C(C)(C)[C@H]1O [t-TMCD]  Estrogen Receptor ERα (Homo sapiens)     3.03E-03
3  C=CCOc1ccc(S(=O)(=O)c2ccc(O)cc2)cc1 [BPS-MAE, 4-[[4-(Allyloxy)phenyl]sulfonyl]phenol]  Estrogen Receptor ERα (Homo sapiens)     1.41E-05
4  O=C(OCc1ccccc1)c1ccc(O)cc1 [BzPB, Benzyl 4-hydroxybenzoate]  Estrogen Receptor ERα (Homo sapiens)     3.02E-06
5  Oc1ccc(Sc2ccc(O)cc2)cc1 [BPT, 4,4'-Thiodiphenol]  Estrogen Receptor ERα (Homo sapiens)     7.27E-07
6   CC1(C)C(O)C(C)(C)C1O (racemic) [r-TMCD]  Estrogen Receptor ERα (Homo sapiens)     1.29E-02
7     O=S(=O)(c1ccc(O)cc1)c1ccccc1O [24BPS]  Estrogen Receptor ERα (Homo sapiens)     1.98E-05
8  CC(C)(c1ccc(O)cc1)c1ccc(O)cc1 [BPA, 4,4'-(Propane-2,2-diyl)diphenol, reference compound]  Estrogen Receptor ERα (Homo sapiens)     3.70E-07

###

- System: HEK293H (PPARγ)
- test_settings: PPARγ bioassay cytotoxicity; dosing range all; log-logistic model
value_type: logIC10

>>> print(df.to_string())
                                    molecule  value_type  assay_value
 0  C=CCOc1ccc(S(=O)(=O)c2ccc(O)cc2)cc1 [BPS-MAE, 4-[[4-(Allyloxy)phenyl]sulfonyl]phenol]     logIC10        -4.24
 1  CC(C)(c1ccc(OCC2CO2)cc1)c1ccc(OCC2CO2)cc1 (stereo not shown)     logIC10        -4.62
 2  Cc1cc(Cc2cc(C)c(O)c(C)c2)cc(C)c1O [TMBPF, Bis(3,5-dimethyl-4-hydroxyphenyl)methane]     logIC10        -5.53
 3  COC(=O)C(c1ccc(O)cc1)c1ccc(O)cc1 [Bz, Methyl bis(4-hydroxyphenyl)acetate]     logIC10        -3.55
 4  Oc1ccc(Cc2ccc(O)cc2)cc1 [BPF, Bis(4-hydroxyphenyl)methane]     logIC10        -4.01
 5  Oc1ccc(C2(c3ccc(O)cc3)CCCCC2)cc1 [BPZ, 1,1'-Bis(4-hydroxyphenyl)cyclohexane]     logIC10        -5.04
 6                   Oc1ccc(Sc2ccc(O)cc2)cc1     logIC10        -4.76
 7            CCC(C)(c1ccc(O)cc1)c1ccc(O)cc1     logIC10        -4.83
 8  Oc1ccc(C(c2ccc(O)cc2)(C(F)(F)F)C(F)(F)F)cc1     logIC10        -5.04
 9                CC(c1ccc(O)cc1)c1ccc(O)cc1     logIC10        -4.15
10           O=S(=O)(c1ccc(O)cc1)c1ccc(O)cc1     logIC10        -3.22
11      CC(c1ccccc1)(c1ccc(O)cc1)c1ccc(O)cc1     logIC10        -4.99
12  CC(C)(c1ccc(O)c(-c2ccccc2)c1)c1ccc(O)c(-c2ccccc2)c1 [BPPH, 2,2-Bis(2-hydroxy-5-biphenylyl)propane]     logIC10        -5.16
13  O=C(OCc1ccccc1)c1ccc(O)cc1 [BzPB, Benzyl 4-hydroxybenzoate]     logIC10        -4.33
14  Cc1ccc(S(=O)(=O)NC(=O)Nc2cccc(OS(=O)(=O)c3ccc(C)cc3)c2)cc1     logIC10        -4.72
15  Cc1ccc(S(=O)(=O)NC(=O)Nc2ccc(Cc3ccc(NC(=O)NS(=O)(=O)c4ccc(C)cc4)cc3)cc2)cc1     logIC10        -4.51
16  CC(C)c1cc(C(C)(C)c2ccc(O)c(C(C)C)c2)ccc1O     logIC10        -5.19

###

- method_notes: Octanol-water partition constant (log Kow) measurement, Sirius T3 potentiometric log P
- Assay type: physicochemical
- test_settings: experimental, this study
Cut-off 4 on log Kow used, inclusive. At or above means met; below means not met.

>>> print(df.to_string())
                                   compound  label_class
0  Oc1ccc(Cc2ccc(O)cc2)cc1 [BPF, Bis(4-hydroxyphenyl)methane]      not met
1  O=S(=O)(c1ccc(O)cc1)c1ccccc1O [2,4-BPS, 2,4'-Dihydroxydiphenyl sulfone]      not met
2  Oc1ccc(C2(c3ccc(O)cc3)CCCCC2)cc1 [BPZ, 1,1'-Bis(4-hydroxyphenyl)cyclohexane]          met
3  CC(C)(c1ccc(O)cc1)c1ccc(O)cc1 [BPA, 4,4'-(Propane-2,2-diyl)diphenol, reference compound]          met
4  O=S(=O)(c1ccc(O)cc1)c1ccc(OCc2ccccc2)cc1 [BPS-MPE, 4-[4-(benzyloxy)benzenesulfonyl]phenol]          met

###

- test_target: Estrogen Receptor ERα (Homo sapiens, UniProt P03372)
- method_notes: cell-based
- test_settings: Bioassay ERα; dosing range high; log-logistic model fit
value_type: logEC10

In [3]: df
Out[3]:
                                   molecule  assay_value
0  CC(C)(c1ccc(O)cc1)c1ccc(O)cc1 [BPA, 4,4'-(Propane-2,2-diyl)diphenol, reference compound]        -7.06
1  COC(=O)C(c1ccc(O)cc1)c1ccc(O)cc1 [Bz, Methyl bis(4-hydroxyphenyl)acetate]        -6.83
2  O=S(=O)(c1ccc(O)cc1)c1ccc(O)cc1 [BPS, 4,4'-Sulfonyldiphenol]        -5.97
3  CCC(C)(c1ccc(O)cc1)c1ccc(O)cc1 [BPB, 4,4'-(Butane-2,2-diyl)diphenol]        -7.27
